system: MCF7; assay: NCI tumour cell line growth inhibition, 48 h
Active and inactive are the calls of the source. No stated cut-off is given here; in the data, active = GI50 up to about 1.1 µM and inactive = higher.
Possible outcomes: 1 = active, -1 = inactive

molecule: CN(C)CCOc1ccc2c(c1)C/C(=C/c1ncc([N+](=O)[O-])n1C)C2=O
label: 1

molecule: O/N=C1\CSc2ccccc2C1
label: -1

molecule: Nc1nc(NNc2cccc(F)c2)cc(=O)[nH]1
label: -1

molecule: CN1C(=O)C23CCCCC2CC1(c1ccccc1)S3 (stereo unspecified)
label: -1

molecule: N=C(N)SC(c1ccccc1)c1ccccc1
label: -1

molecule: Cc1coc2c1C(=O)C(=O)c1c-2ccc2c1CCCC2(C)C [TANSHINONE IIA]
label: -1

molecule: COc1ccc(/C=C\c2cc(OC)c(OC)c(OC)c2)cc1OC(=O)CC(N)C(=O)O (stereo unspecified)
label: 1

molecule: COc1nc2c(c(=O)n1C)NC(C(O)C(O)CO)C=N2 (stereo unspecified)
label: -1

molecule: CCOC(=O)/C(=C\NC(C)(C)C)c1nc2ccccc2o1
label: -1

molecule: O=C1NC(=O)C(CCO)(c2ccccc2)C(=O)N1
label: -1

molecule: Cc1ccc(NC(=O)/C(=N/N(C)C)C(C2OC(=O)c3ccccc32)[N+](=O)[O-])cc1 (stereo unspecified)
label: -1
